Every entry's value here was drawn from patent US20150140169.

Biological target: T1, alpha-s1 casein from Bos taurus
T1 chain: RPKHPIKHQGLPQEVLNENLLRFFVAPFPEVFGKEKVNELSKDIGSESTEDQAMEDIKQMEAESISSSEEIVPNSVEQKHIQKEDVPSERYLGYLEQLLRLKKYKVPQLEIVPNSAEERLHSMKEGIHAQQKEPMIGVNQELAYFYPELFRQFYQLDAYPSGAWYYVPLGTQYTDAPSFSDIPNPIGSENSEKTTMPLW
property-name: αs1 CN, 24 hours, 11° C.
Answers without a unit are incomplete; give the number and then its unit.

Please fill in: αs1 CN, 24 hours, 11° C. reported for camel chymosin variant #154 (D290M) (protein) GKVAREPLTSYLDSQYFGKIYIGTPPQEFTVVFDTGSSDLWVPSIYCKSNVCKNHHRFDPRKSSTFRNLGKPLSIHYGTGSMEGFLGYDTVTVSNIVDPNQTVGLSTEQPGEVFTYSEFDGILGLAYPSLASEYSVPVFDNMMDRHLVARDLFSVYMDRNGQGSMLTLGAIDPSYYTGSLHWVPVTLQQYWQFTVDSVTINGVAVACVGGCQAILDTGTSVLFGPSSDILKIQMAIGATENRYGEFDVNCGNLRSMPTVVFEINGRDYPLSPSAYTSKDQGFCTSGFQGMNNSELWILGDVFIREYYSVFDRANNRVGLAKAI = 8.3e+06 Volume
